# testName: Half life in rat hepatocyte
# Assay type: ADME, cell-based
# assayConditions: hepatocytes
observedProperty: half-life

stdin: Look up half-life of CCn1c(CO)nn(-c2cc3c(C(C)C)cn(-c4ccccc4C)c(=O)c3cc2F)c1=O and report it.
stdout: > 6.18 h

====

# testName: AUC (0 to infinity) in C57BL mouse at 2 mg/kg,iv measured upto 24 hrs by LC-MS/MS analysis
# Assay type: ADME, organism-based
# assayConditions: in vivo
Quick rule for you: AUC under 60000 ng·h/mL gets satisfied, anything else gets not satisfied.

A selection of reference data follows.
chemsmiles=CCn1c(CO)nn(-c2cc3c(C(C)C)cn(-c4c(F)cccc4Cl)c(=O)c3cc2F)c1=O label="not satisfied"
chemsmiles=CCn1c(CO)nn(-c2cc3c(C(C)C)cn(-c4ccccc4C)c(=O)c3cc2F)c1=O label=satisfied
chemsmiles=CCn1c(CO)nn(-c2cc3c(C(C)C)cn(-c4ccccc4C(F)(F)F)c(=O)c3cc2F)c1=O label="not satisfied"
chemsmiles=CCn1c(CO)nn(-c2cc3c([C@@H](C)C(F)(F)F)cn(-c4ccccc4C)c(=O)c3cc2F)c1=O label=satisfied

stdin: Check if AUC falls below 60000 ng·h/mL for CCn1c(CO)nn(-c2cc3c(C(C)C)cn(-c4c(C)cnc(OC)c4Cl)c(=O)c3cc2F)c1=O .
stdout: not satisfied
